Exercise: state measured IC50 for each of the molecules provided.
Molecular target: full length active recombinant SYK enzyme (Homo sapiens, UniProt P43405)
Construct: full length active recombinant SYK enzyme (Millipore, Calif.)
Experiment: Inhibition of Syk tyrosine phosphorylation activity (LANCE TR-FRET kinase assay)

Below, 2 molecules whose answers are already recorded.
INSERT INTO assay_data (molecule, observed_measurement) VALUES
  ('COc1nc(N[C@@H](C(N)=O)C(C)C)nc(Nc2cc(C)cc(C)c2)c1C(N)=O', '10 to 100 nM'),
  ('CC(=O)N(C)c1ccc(Nc2nc(NC3CC3)c(C(N)=O)c(=O)[nH]2)cc1', '> 1000 nM');

Request: Reported IC50, molecule Cc1cccc(Nc2nc(NC[C@H](C)N)nc(OCCO)c2C(N)=O)c1 : ____
Result: > 1000 nM

Values from patent US20130317029A1
